Value source: paper PMC9915621

Below, each entry is listed alongside its reported pKd.
# SYSTEM_TESTED: T1, PlzA WT (Borrelia burgdorferi B31, UniProt O51675 1-261)
# T1 sequence: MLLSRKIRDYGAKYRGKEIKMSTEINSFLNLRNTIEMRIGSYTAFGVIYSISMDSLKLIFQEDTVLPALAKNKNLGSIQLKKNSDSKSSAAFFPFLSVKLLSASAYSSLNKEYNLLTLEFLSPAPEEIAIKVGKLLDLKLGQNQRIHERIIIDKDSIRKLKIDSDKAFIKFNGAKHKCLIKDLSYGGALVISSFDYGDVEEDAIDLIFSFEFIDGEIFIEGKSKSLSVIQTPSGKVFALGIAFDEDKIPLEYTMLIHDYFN
# ASSAY_REMARKS: EMSA
Please express pKd as -log10 of the molar concentration.

BINDER: ATTAAATATAATTTTAATAAGGCTTTTATTAGAAAAATTAAT (ssDNA) [ssglpF]
pKd: 5.35
//
BINDER: AUAAUUUUAAUAAGGCUUUUAUUAGAAAAAUUAAU (ssRNA) [glpFKD(UTR) RNA]
pKd: 6.02

Sure, the documented pKd for glpFKD(-7/+35) (dsDNA) DNA 1: ATTAAATATAATTTTAATAAGGCTTTTATTAGAAAAATTAAT DNA 2: ATTAATTTTTCTAATAAAAGCCTTATTAAAATTATATTTAAT is 5.96
